Tested on: pigweed (Amaranthus retroflexus)
test_name: Test A pre-/postemergence plant response
Format: in vivo
condition_info: Preemergence, 125 g ai/ha; 0 to 100 scale, 0 = no effect, 100 = complete control
Examples of molecules with documented Plant response rating, Pigweed follow.
Respond using a number only.

Some solved entries appear below for comparison.
[[record]]
molecule = "O=C1CCCC(O)=C1C(=O)c1cnc(-c2ccccc2)n(C2CC[S+]([O-])CC2)c1=O (mixture of isomers)"
assay_value = 10

[[record]]
molecule = "O=C(C1=C(O)C2CCC(C2)C1=O)c1cnc(-c2ccsc2)n(CC2CCCO2)c1=O (stereo not shown)"
assay_value = 90

[[record]]
molecule = "O=C1CCCC(O)=C1C(=O)c1cnc(-c2cc(F)c(F)c(F)c2)n(C2CCCCC2)c1=O"
assay_value = 10


Proceed to the following item.
[in] Output measured Plant response rating, Pigweed for this item: Cc1ccc(-n2c(-c3cccc(F)c3)ncc(C(=O)C3=C(O)CCCC3=O)c2=O)cc1
[out] 90

* * *

Test system: winter barley (Hordeum vulgare)
test_name: Test B postemergence plant response
Type: in vivo
condition_info: 62 g ai/ha, postemergence; 0 is no effect, 100 is complete control; 13 to 15 days
measured_parameter: Barley plant response rating (0 to 100 scale)
# print the numeric value only

Consider the following illustrative entries.
[[record]]
compound = "Cc1ccc(-c2ncc(C(=O)C3=C(O)CCCC3=O)c(=O)n2-c2ccccc2)cc1"
assay_value = 30

[[record]]
compound = "COCCCn1c(-c2cc(F)cc(F)c2)ncc(C(=O)C2=C(O)CCCC2=O)c1=O"
assay_value = 5


[in] Answer with reported Barley plant response rating (0 to 100 scale) of CCCn1c(-c2ccc(F)cc2)ncc(C(=O)C2=C(O)CCCC2=O)c1=O
[out] 10

[in] Name the recorded Barley plant response rating (0 to 100 scale) of the compound listed here: COCC(C)n1c(-c2ccccc2)ncc(C(=O)C2=C(O)CCCC2=O)c1=O (stereo not shown)
[out] 5

* * *

This listing pairs compounds with measured Plant response rating, Surinam Grass.
Test system: Surinam grass (Brachiaria decumbens)
test_name: Test B pre-/postemergence plant response
Type: in vivo
condition_info: Postemergence, 125 g ai/ha; scale 0 to 100 (0 no effect, 100 complete control)
The reply should be a number, written without any unit.

Examples from the recorded data:
[[record]]
compound = "CCCn1c(-c2cccc(Br)c2)ncc(C(=O)C2=C(O)CCCC2=O)c1=O [Compound 141]"
target_under_test = "Surinam grass (Brachiaria decumbens)"
assay_value = 70

[[record]]
compound = "COCCn1c(-c2cc(F)cc(F)c2)ncc(C(=O)C2=C(O)CCCC2=O)c1=O [Compound 119]"
target_under_test = "Surinam grass (Brachiaria decumbens)"
assay_value = 95

[[record]]
compound = "CCCn1c(-c2cccc(C(F)(F)F)c2)ncc(C(=O)C2=C(O)CCCC2=O)c1=O [Compound 155]"
target_under_test = "Surinam grass (Brachiaria decumbens)"
assay_value = 65

[[record]]
compound = "Cc1ccc(F)cc1-n1c(-c2cccc(Cl)c2)ncc(C(=O)C2=C(O)CCCC2=O)c1=O [Compound 157]"
target_under_test = "Surinam grass (Brachiaria decumbens)"
assay_value = 98


--- query ---
[in] Determine reported Plant response rating, Surinam Grass for O=C1CCCC(O)=C1C(=O)c1cnc(-c2cc(F)cc(F)c2)n(C2CCCCC2)c1=O [Compound 181] ; test system: Surinam grass (Brachiaria decumbens).
[out] 95
